# SUBJECT OF TEST: atrial inward rectifier K+ (KG) channel (Rattus norvegicus, UniProt P48548+P63251)
# Construct: is expressed in oocytes injected with atrial RNA; expressed in transfected cells; host or cells: Xenopus laevis oocytes injected with rat atrial total or poly(A) RNA plus 5HT1A receptor cRNA
# Sequence (P63251 whole entry): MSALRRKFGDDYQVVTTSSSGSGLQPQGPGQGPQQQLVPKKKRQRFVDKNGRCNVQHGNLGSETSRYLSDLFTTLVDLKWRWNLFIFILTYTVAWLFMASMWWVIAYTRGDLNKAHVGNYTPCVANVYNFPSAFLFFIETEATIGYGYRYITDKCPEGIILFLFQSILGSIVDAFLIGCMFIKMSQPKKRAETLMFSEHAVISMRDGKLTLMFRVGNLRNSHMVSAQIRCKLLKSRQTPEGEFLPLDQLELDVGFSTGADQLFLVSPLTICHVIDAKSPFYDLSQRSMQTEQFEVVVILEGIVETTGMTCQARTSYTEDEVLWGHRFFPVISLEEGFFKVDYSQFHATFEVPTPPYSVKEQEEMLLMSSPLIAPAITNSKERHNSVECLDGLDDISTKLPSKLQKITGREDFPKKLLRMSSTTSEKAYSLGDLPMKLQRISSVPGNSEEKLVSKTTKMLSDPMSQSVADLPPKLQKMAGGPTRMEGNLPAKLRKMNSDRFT
# Sequence (P48548 whole entry): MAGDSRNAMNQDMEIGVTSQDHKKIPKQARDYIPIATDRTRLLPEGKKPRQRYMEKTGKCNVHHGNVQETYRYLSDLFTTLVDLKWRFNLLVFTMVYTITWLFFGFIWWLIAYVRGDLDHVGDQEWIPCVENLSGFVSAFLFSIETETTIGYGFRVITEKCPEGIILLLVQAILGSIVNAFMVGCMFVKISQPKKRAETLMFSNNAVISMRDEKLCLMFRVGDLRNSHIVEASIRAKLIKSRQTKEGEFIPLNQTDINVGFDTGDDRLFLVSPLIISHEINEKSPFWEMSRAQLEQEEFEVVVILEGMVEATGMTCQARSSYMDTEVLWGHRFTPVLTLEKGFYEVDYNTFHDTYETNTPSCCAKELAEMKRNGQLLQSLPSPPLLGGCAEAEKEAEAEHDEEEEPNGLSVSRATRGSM
# ASSAY NOTES: Two-electrode voltage clamp of the transmitter-evoked inward current (I5HT) in oocytes injected with atrial RNA + 5HT1A-R RNA
# Assay type: cell-based
# EXPERIMENTAL CONDITIONS: hK solution, -80 mV, FIG. 3D; read-out: IC50 (half-inhibition concentration) for block of I5HT
PROPERTY LABEL: IC50

SMILES REPRESENTATION | PROPERTY LABEL | RESULT
[Ba+2] | IC50 | ~15 µM

Ref: patent US7138248B2
